The values you see were collected from patent US20260184704A1.

- testSystem: NLRP3 (Homo sapiens)
- Construct: purchased ICE YM2306T-H06MHS
- experimentSummary: NLRP3 Enzymatic Activity ADP-Glo Assay (Example B-4)
- Assay type: biochemical
- runParameters: hydrolysis of ATP by NLRP3; NLRP3 15 nM, ATP 1 μM; read-out: NLRP3_ADP-Glo_IC50 (nM), Example B-4
Reported IC50 is given for each of the following molecules.

Any idea what IC50 was measured for Cc1cc(C(F)(F)F)cc(O)c1C1=NN=C(N2CCC[C@@H]2[C@@H](C)O)SC1 (single isomer, unassigned) [Compound 33] ? > 1000 nM

Follow-up entry: C[C@]1(O)C[C@@H](NC2=NN=C(c3c(C(F)(F)F)cc4c(c3O)CCO4)CS2)C1 [Compound 58] 10 to 100 nM

What about Cc1c(F)c2c(c(O)c1C1=NN=C(N[C@H]3C[C@@](C)(O)C3)SC1)CCO2 [Compound 61] ? 10 to 100 nM

Here is the next molecule: Cc1cc(C(F)(F)F)cc(O)c1C1=NN=C(N[C@@H]2C[C@@H](F)CN(C)C2)SC1 [Compound 8] 10 to 100 nM

Try this molecule next: Cc1cc2sccc2c(O)c1C1=NN=C(N[C@@H]2CCCN(CCO)C2)SC1 [Compound 47] < 10 nM

More entries:
Endpoint output: IC50 of Cc1cc2c(c(O)c1C1=NN=C(N[C@H]3C[C@](C)(O)C3)SC1)CC2 [Compound 67] . Value? 10 to 100 nM

Thanks! And Cc1cc2c(cc1C1=NN=C(N[C@@H]3CCCN(C)C3)SC1)CCO2 [Compound 49] ? > 1000 nM

And then Cc1cc(Cl)cc(O)c1C1=NN=C(N[C@H]2C[C@@](C)(O)C2)SC1 [Compound 30] , what is it? 10 to 100 nM

Likewise for Cc1cc(Cl)cc(O)c1C1=NN=C(N[C@H]2C[C@@](C)(O)C2)CS1 [Compound 204] ? 10 to 100 nM

---

- testSystem: NLRP3 (Homo sapiens, UniProt Q96P20)
- Construct: purchased ICE YM2306T-H06MHS
- Sequence (Q96P20 whole entry): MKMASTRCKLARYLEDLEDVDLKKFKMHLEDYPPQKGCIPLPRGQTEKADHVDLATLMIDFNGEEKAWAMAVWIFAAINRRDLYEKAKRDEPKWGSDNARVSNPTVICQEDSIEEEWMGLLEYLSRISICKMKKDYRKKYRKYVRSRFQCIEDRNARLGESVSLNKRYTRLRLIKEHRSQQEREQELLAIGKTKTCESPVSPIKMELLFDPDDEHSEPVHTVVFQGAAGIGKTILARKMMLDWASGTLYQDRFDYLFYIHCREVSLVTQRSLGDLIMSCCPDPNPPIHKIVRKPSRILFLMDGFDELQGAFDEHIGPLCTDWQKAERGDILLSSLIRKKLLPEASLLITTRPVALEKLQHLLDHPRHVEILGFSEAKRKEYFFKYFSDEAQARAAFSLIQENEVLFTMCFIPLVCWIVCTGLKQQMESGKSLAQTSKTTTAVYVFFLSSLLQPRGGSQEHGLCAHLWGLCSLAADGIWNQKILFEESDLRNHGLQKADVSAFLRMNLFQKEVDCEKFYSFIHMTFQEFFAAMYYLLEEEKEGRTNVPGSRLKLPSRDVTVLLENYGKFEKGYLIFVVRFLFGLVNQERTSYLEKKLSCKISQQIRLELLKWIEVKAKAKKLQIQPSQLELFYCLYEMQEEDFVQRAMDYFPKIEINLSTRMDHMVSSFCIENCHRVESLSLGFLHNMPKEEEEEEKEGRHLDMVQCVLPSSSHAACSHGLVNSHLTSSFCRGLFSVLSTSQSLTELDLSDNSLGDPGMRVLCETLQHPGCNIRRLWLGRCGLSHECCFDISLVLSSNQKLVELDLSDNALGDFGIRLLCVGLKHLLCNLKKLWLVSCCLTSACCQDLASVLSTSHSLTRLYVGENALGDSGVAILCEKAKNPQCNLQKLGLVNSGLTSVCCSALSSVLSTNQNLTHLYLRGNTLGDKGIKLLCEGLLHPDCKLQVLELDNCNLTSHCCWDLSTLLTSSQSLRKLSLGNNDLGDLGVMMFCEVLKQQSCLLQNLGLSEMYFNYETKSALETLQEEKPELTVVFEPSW
- experimentSummary: NLRP3 Enzymatic Activity ADP-Glo Assay (Example B-4)
- Type: biochemical
- runParameters: hydrolysis of ATP by NLRP3; NLRP3 15 nM, ATP 1 μM; read-out: NLRP3_ADP-Glo_IC50 (nM), Example B-4
experimentalReadout: IC50

Example results:
State the recorded IC50 for this entry: Cc1cc(OC(F)F)cc(O)c1C1=NN=C(N[C@H]2C[C@@](C)(O)C2)SC1 10 to 100 nM

Please answer likewise for CCN1CCC[C@@H](NC2=NN=C(c3c(C)cc4sccc4c3O)CS2)C1 < 10 nM

Now the same for Cc1cc(C(F)(F)F)cc(O)c1C1=NN=C(N[C@@H]2CCCN(C)C2)OC1 > 1000 nM

// query: Cc1cc(C(F)(F)F)cc(OC(F)F)c1C1=NN=C(N[C@H]2C[C@@](C)(O)C2)SC1 > 1000 nM

Then what about the molecule C[C@]1(O)C[C@@H](NC2=NN=C(c3c(Cl)cc4c(c3O)CCO4)CS2)C1 ? 10 to 100 nM

More entries:
Looking for the measured IC50 of Cc1c(F)c2c(c(O)c1C1=NN=C(N[C@@H]3CCCN(C)C3)SC1)CCO2 , can you help? 10 to 100 nM

What about this molecule? Cc1cc2c(c(O)c1C1=NN=C(N[C@@H]3CCCN(C)C3)SC1)CCO2 10 to 100 nM

Can you handle CNC(=O)CNC1=NN=C(c2c(C)cc(C(F)(F)F)cc2O)CS1 next? > 1000 nM

---

- testSystem: hERG (Homo sapiens)
- Construct: expressed in transfected cells
- Sequence (Q12809 whole entry): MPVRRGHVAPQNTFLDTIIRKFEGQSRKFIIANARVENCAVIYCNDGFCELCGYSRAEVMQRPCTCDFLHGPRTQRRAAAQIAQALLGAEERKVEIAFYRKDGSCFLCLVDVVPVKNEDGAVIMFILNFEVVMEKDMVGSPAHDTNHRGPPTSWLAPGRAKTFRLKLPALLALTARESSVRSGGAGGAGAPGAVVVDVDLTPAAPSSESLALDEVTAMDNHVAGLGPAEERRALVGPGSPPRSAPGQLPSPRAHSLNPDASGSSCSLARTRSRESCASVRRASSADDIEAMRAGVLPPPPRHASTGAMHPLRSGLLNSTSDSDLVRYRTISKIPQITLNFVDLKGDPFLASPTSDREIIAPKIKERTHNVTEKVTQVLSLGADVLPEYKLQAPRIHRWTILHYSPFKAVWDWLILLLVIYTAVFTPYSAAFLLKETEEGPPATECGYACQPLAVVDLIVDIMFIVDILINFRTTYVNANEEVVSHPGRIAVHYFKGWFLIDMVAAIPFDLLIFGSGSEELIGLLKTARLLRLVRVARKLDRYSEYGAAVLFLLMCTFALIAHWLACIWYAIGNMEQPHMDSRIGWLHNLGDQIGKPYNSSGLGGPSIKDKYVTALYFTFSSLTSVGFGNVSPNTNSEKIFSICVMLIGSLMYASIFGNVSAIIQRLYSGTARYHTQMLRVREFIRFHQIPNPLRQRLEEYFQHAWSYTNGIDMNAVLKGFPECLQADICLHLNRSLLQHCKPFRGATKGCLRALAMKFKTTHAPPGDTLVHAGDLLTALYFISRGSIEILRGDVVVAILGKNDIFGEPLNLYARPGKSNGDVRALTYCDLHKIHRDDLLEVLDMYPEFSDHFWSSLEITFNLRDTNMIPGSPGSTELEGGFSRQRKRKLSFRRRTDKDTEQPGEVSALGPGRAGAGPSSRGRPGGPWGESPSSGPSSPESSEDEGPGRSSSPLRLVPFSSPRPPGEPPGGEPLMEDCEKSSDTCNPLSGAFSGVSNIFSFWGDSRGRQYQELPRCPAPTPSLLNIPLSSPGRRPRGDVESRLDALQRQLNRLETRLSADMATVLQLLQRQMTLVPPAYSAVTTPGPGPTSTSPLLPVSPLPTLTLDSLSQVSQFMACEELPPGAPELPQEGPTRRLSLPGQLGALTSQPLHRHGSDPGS
- experimentSummary: hERG Screening Assay Using Electrophysiological Manual Patch-Clamp (Example B-5)
- Assay type: cell-based
- runParameters: hERG-CHO cells, whole-cell manual patch clamp, room temperature; read-out: hERG inhibition_IC50 (μM), Example B-5
IC50 listing for selected compounds.
Hi! Could you send only the number? It should be in µM, unit omitted.

Requested field: IC50. Item: Cc1cc(C(F)(F)F)cc(O)c1C1=NN=C(N[C@@H]2C[C@@H](F)CN(C)C2)SC1 [Compound 8] 19.1

New cases:
Give its IC50 value. Item: Cc1cc2c(c(O)c1C1=NN=C(N[C@@H]3CCCN(C)C3)SC1)CCO2 [Compound 28] 29.4

---

- testSystem: NLRP3 (Homo sapiens, UniProt Q96P20)
- Construct: purchased ICE YM2306T-H06MHS
- experimentSummary: NLRP3 Enzymatic Activity ADP-Glo Assay (Example B-4)
- Format: biochemical
- runParameters: hydrolysis of ATP by NLRP3; NLRP3 15 nM, ATP 1 μM; read-out: NLRP3_ADP-Glo_IC50 (nM), Example B-4
- Method: Example B-4: NLRP3 Enzymatic Activity ADP-Glo Assay NLRP3 activity test experiment, measuring the hydrolysis of NLRP3 on the substrate ATP using the ADP-Glo assay. […] The luminescence signal values were read using a BMG instrument and the IC50 values were determined by fitting the data to an S-shaped dose-response curve using nonlinear regression.
experimentalReadout: IC50

Which IC50 is listed for CCN1CCC[C@@H](NC2=NN=C(c3c(C)cc4c(c3O)CCO4)CS2)C1 [Compound 54] ? < 10 nM

What about this molecule? Cc1cc(C#N)cc(O)c1C1=NN=C(N2CCC3CCN(C)CC32)SC1 (stereo not drawn) [Compound 39] 100 to 1000 nM

Now look at this entry.
# get_value(readout='IC50', item= Cc1cc2c(c(O)c1C1=NN=C(N[C@H]3C[C@](C)(O)C3)SC1)CCO2 [Compound 65] ) 100 to 1000 nM

---

- testSystem: hERG (Homo sapiens)
- Construct: expressed in transfected cells
- experimentSummary: hERG Screening Assay Using Electrophysiological Manual Patch-Clamp (Example B-5)
- Format: cell-based
- runParameters: hERG-CHO cells, whole-cell manual patch clamp, room temperature; read-out: hERG inhibition_IC50 (μM), Example B-5
# Lookup of reported IC50 keyed by entry

Example molecules with recorded IC50:
Which IC50 value belongs to Cc1cc2c(c(O)c1C1=NN=C(N[C@H]3C[C@@](C)(O)C3)SC1)CCO2 ? > 30 µM

Try this molecule next: Cc1cc2c(c(O)c1C1=NN=C(N[C@H]3C[C@@](C)(O)C3)SC1)CC2 > 30 µM

More entries:
Using the record for Cc1cc(C(F)(F)F)cc(O)c1C1=NN=C(N[C@H]2C[C@@](C)(O)C2)SC1 , report its IC50. > 30 µM

---

Here, each record is paired with measured IC50 data.
- testSystem: NLRP3 (Homo sapiens, UniProt Q96P20)
- Construct: purchased ICE YM2306T-H06MHS
- experimentSummary: NLRP3 Enzymatic Activity ADP-Glo Assay (Example B-4)
- Format: biochemical
- runParameters: hydrolysis of ATP by NLRP3; NLRP3 15 nM, ATP 1 μM; read-out: NLRP3_ADP-Glo_IC50 (nM), Example B-4

As a guide, the following entries are already answered.
Requested read-out: IC50. Entry: Cc1cc(C(F)(F)F)cc(O)c1C1=NN=C(N[C@H]2C[C@@](C)(O)C2)CS1 10 to 100 nM

Please give the result for Cc1cc2c(c(O)c1C1=NN=C(N[C@H]3C[C@@](C)(O)C3)SC1)CCO2 too. 10 to 100 nM

Moving on to [2H]C([2H])([2H])c1cc2c(c(O)c1C1=NN=C(N[C@H]3C[C@@](C)(O)C3)SC1)CCO2 10 to 100 nM

Then this compound: Cc1cc(C(F)(F)F)cc(O)c1C1=NN=C(N2CCC[C@@H]2[C@H](C)O)SC1 (single isomer, unassigned) > 1000 nM

Same for Cc1cc2c(c(O)c1C1=NN=C(N[C@H]3C[C@@](C)(O)C3)SC1)CC2 < 10 nM

What would you report for Cc1cc(Cl)cc(O)c1C1=NN=C(N[C@H]2C[C@@](C)(N)C2)CS1 ? 10 to 100 nM

And then Cc1cc2c(c(O)c1C1=NN=C(N[C@@H]3CCCN(CCO)C3)SC1)CCO2 , what is it? 10 to 100 nM

Also need C[C@]1(O)C[C@@H](NC2=NN=C(c3c(O)cc(C(F)(F)F)cc3Cl)CS2)C1 , thanks. 10 to 100 nM

Further cases:
Consider the compound shown here: Cc1cc2c(c(O)c1C1=NN=C(N[C@H]3C[C@@](C)(O)C3)SC1)CCC2 What is its recorded IC50? 10 to 100 nM

Also, Cc1cc2c(c(O)c1C1=NN=C(N[C@H]3C[C@@](C)(O)C3)SC1)OCC2 please. 10 to 100 nM

What about this compound? COc1cc(C)c(C2=NN=C(N[C@@H]3CCCN(C)C3)SC2)c(O)c1 10 to 100 nM

Okay, and Cc1cc(Cl)cc(O)c1C1=NN=C(N[C@H]2C[C@](C)(N)C2)CS1 ? 100 to 1000 nM

Repeat for the following compound: Cc1cc2c(c(O)c1C1=NN=C(N3CCC4CCN(C)CC43)SC1)CCO2 (stereo not drawn) 10 to 100 nM
